Entries and their pIC50 values follow.
# testedSystem: HLA B*4001 (human)
# measurementNotes: competition with radiolabeled probe peptide, purified MHC
# pIC50: negative log10 of molar concentration; output just the value

INSERT INTO assay_data (binder, endpointresult) VALUES
  ('AEQTGVSHNL (modifications not checked) [NS2B1412-1421]', 7.17);

--- query ---
Lab book: pIC50 of GEIGAIALDF (modifications not checked) [NS31598-1607] noted as 7.40
